Target: T1, CXCL13_HUMAN (human, UniProt O43927 23-109)
T1 sequence: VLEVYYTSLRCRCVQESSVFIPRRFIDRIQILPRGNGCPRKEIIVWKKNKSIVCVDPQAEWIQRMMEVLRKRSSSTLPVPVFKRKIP
Test: BLI
measuredProperty: Kd (nM)

binder="P1104_IXORI (other) ESKEASASQGPGKSFKVEFCETNCTENNGVWSGCTGDCICVSVGDSKEGRCMDLGDKVIDTPVAQG" measuredproperty=Kd numericresult=220

Where these numbers come from: patent US20240034757A1
